Source of measurements: ChEMBL document CHEMBL6127107

# Tested on: Candida albicans
# Procedure Text: Antimicrobial activity against fluconazole-resistant Candida albicans
# Assay type: functional
Quantity Kind: MIC

1) CCCCCCCCCCCCCOC(=O)[C@]12CCC(C)(C)C[C@H]1C1=CC[C@@H]3[C@@]4(C)CC[C@H](O)C(C)(C)[C@@H]4CC[C@@]3(C)[C@]1(C)CC2; > 64 µg/mL
2) CC1(C)CC[C@]2(C(=O)O)CC[C@]3(C)C(=CC[C@@H]4[C@@]5(C)CC[C@H](OCC(O)CCCNC(=N)N)C(C)(C)[C@@H]5CC[C@]43C)[C@@H]2C1 (stereo partly specified); 2 µg/mL
3) CCCCCCCCC(=O)O[C@H]1CC[C@]2(C)[C@H]3CC=C4[C@@H]5CC(C)(C)CC[C@]5(C(=O)O)CC[C@@]4(C)[C@]3(C)CC[C@H]2C1(C)C; > 64 µg/mL
4) CC(=O)O[C@H]1CC[C@]2(C)[C@H]3CC=C4[C@@H]5CC(C)(C)CC[C@]5(C(=O)N5CCCCC5)CC[C@@]4(C)[C@]3(C)CC[C@H]2C1(C)C; > 64 µg/mL
5) CC(=O)O[C@H]1CC[C@]2(C)[C@H]3CC=C4[C@@H]5CC(C)(C)CC[C@]5(C(=O)NCCCN)CC[C@@]4(C)[C@]3(C)CC[C@H]2C1(C)C; 2 µg/mL

Inquiry: # query: MIC of entry CC1(C)CC[C@]2(C(=O)O)CC[C@]3(C)C(=CC[C@@H]4[C@@]5(C)CC[C@H](OC(=O)c6ccccc6)C(C)(C)[C@@H]5CC[C@]43C)[C@@H]2C1
Reply text: > 64 µg/mL

====

# Tested on: Staphylococcus aureus
# Procedure Text: Antimicrobial activity against Staphylococcus aureus 31
# Format: functional
Quantity Kind: MIC

Example molecules with recorded MIC:
1) CCCCCCCCCCCCC(=O)O[C@H]1CC[C@]2(C)[C@H]3CC=C4[C@@H]5CC(C)(C)CC[C@]5(C(=O)O)CC[C@@]4(C)[C@]3(C)CC[C@H]2C1(C)C; > 64 µg/mL
2) CC(=O)O[C@H]1CC[C@]2(C)[C@H]3CC=C4[C@@H]5CC(C)(C)CC[C@]5(C(=O)NCCCCCCCCNC(=N)N)CC[C@@]4(C)[C@]3(C)CC[C@H]2C1(C)C; 16 µg/mL
3) CC(=O)O[C@H]1CC[C@]2(C)[C@H]3CC=C4[C@@H]5CC(C)(C)CC[C@]5(C(=O)NCCCCCCCCN)CC[C@@]4(C)[C@]3(C)CC[C@H]2C1(C)C; 32 µg/mL

Inquiry: Query (molecule): CC1(C)CC[C@]2(C(=O)O)CC[C@]3(C)C(=CC[C@@H]4[C@@]5(C)CC[C@H](OCC(O)CNCc6ccoc6)C(C)(C)[C@@H]5CC[C@]43C)[C@@H]2C1 (stereo partly specified) ; field requested: MIC
Reply text: > 64 µg/mL

Inquiry: Which value of MIC has been reported for CC(=O)O[C@H]1CC[C@]2(C)[C@H]3CC=C4[C@@H]5CC(C)(C)CC[C@]5(C(=O)NCc5ccc(F)cc5)CC[C@@]4(C)[C@]3(C)CC[C@H]2C1(C)C in the records?
Reply text: > 64 µg/mL

Inquiry: Find the recorded MIC belonging to CCC(=O)O[C@H]1CC[C@]2(C)[C@H]3CC=C4[C@@H]5CC(C)(C)CC[C@]5(C(=O)O)CC[C@@]4(C)[C@]3(C)CC[C@H]2C1(C)C and report it.
Reply text: > 64 µg/mL

Inquiry: Fill blank: measured MIC of the molecule CC1(C)CC[C@]2(C(=O)O)CC[C@]3(C)C(=CC[C@@H]4[C@@]5(C)CC[C@H](O)C(C)(C)[C@@H]5CC[C@]43C)[C@@H]2C1 [OLEANOLIC_ACID] is ____.
Reply text: 32 µg/mL

Inquiry: Please look up its MIC: CC1(C)CC[C@]2(C(=O)O)CC[C@]3(C)C(=CC[C@@H]4[C@@]5(C)CC[C@H](OC(=O)c6ccccc6C(=O)O)C(C)(C)[C@@H]5CC[C@]43C)[C@@H]2C1
Reply text: 64 µg/mL

Inquiry: I am curious: what MIC value has been reported for CC1(C)CC[C@]2(C(=O)O)CC[C@]3(C)C(=CC[C@@H]4[C@@]5(C)CC[C@H](OCC(O)CCCCNC(=N)N)C(C)(C)[C@@H]5CC[C@]43C)[C@@H]2C1 (stereo partly specified) ?
Reply text: 8 µg/mL

Inquiry: Recorded MIC of CCCCCCC(=O)O[C@H]1CC[C@]2(C)[C@H]3CC=C4[C@@H]5CC(C)(C)CC[C@]5(C(=O)O)CC[C@@]4(C)[C@]3(C)CC[C@H]2C1(C)C , please.
Reply text: > 64 µg/mL

Inquiry: Please look up its MIC: CC(=O)O[C@H]1CC[C@]2(C)[C@H]3CC=C4[C@@H]5CC(C)(C)CC[C@]5(C(=O)NCCCCN)CC[C@@]4(C)[C@]3(C)CC[C@H]2C1(C)C
Reply text: 8 µg/mL
